biological target: DNA topoisomerase 1 (Homo sapiens); test: Inhibition of recombinant human topoisomerase 1 assessed as relaxation of supercoiled plasmid DNA pBR322 at 100 uM incubated for 30 mins by agarose gel electrophoresis
Parameter threshold = 80%. Response is true when inhibition meets or exceeds it, else false.

- smi: "Cc1ccc2c(=O)[nH]c(-c3cccc(F)c3)nc2c1"
  label class: "false"
- smi: "Cc1ccc2nc(-c3cccc(OC(F)(F)F)c3)[nH]c(=O)c2c1"
  label class: "true"
- smi: "Cc1ccc2c(=O)[nH]c(-c3cccc(OC(F)(F)F)c3)nc2c1"
  label class: "false"
- smi: "Cc1ccc2c(=O)[nH]c(-c3cccc(C(F)(F)F)c3)nc2c1"
  label class: "true"
- smi: "Cc1ccc2c(=O)[nH]c(-c3ccccc3OC(F)(F)F)nc2c1"
  label class: "true"

Item Cc1ccc2nc(-c3ccccc3F)[nH]c(=O)c2c1 with inhibition of 80% or above?
false

Try the compound O=c1[nH]c(-c2cccc3ccccc23)nc2ccc(N3CCOCC3)cc12
true

Also, Cc1ccc2nc(-c3cccc4ccccc34)[nH]c(=O)c2c1 please.
false

And for Cc1ccc2nc(-c3cccc(F)c3)[nH]c(=O)c2c1 ?
true
